A collection of compounds and their measured IC50
- SYSTEM_NAME: Phosphodiesterase 4 (Mus musculus, UniProt Q8VBU5+Q3UEI1+O89084+Q01063)
- ASSAY_COMMENT: Displacement of [3H]rolipram from mouse brain homogenates
- Format: tissue-based

- COMPOUND: "COc1ccc(-c2ccc(C(N)=O)cc2)cc1OC1(CCCc2ccccc2)CC1"
  IC50, nM: 1900
- COMPOUND: "COc1ccc(-c2ccc(C(=O)O)c(C)c2)cc1OCCCCCc1ccccc1"
  IC50, nM: 1680
- COMPOUND: "COc1ccc(-c2ccc(C(N)=O)cc2)cc1OC1Cc2ccccc2C1"
  IC50, nM: 5
- COMPOUND: "COC(=O)c1ccc(-c2ccc(OC)c(OC3CCCC3)c2)cc1"
  IC50, nM: 130
- COMPOUND: "COc1ccc(-c2ccc(C(=O)O)cc2)cc1OC1CCCC1"
  IC50, nM: 9
- COMPOUND: "COc1ccc(-c2ccc(C(=O)O)cc2)cc1O[C@@H]1CC2CCC1C2 (stereo partly specified)"
  IC50, nM: 3
